# Test system: 786-0 renal
# procedure_details: NCI tumour cell line growth inhibition, 48 h
measurement_name: log10 of TGI (log10 of the value in µM)
Answers are given as log10 of TGI in µM.

>>> print(df.to_string())
                                   molecule  test_result
0  O=C1CC(O)c2c(Br)sc(Br)c21 (centres undefined)         1.17
1  Fc1ccc2c(c1)c(-c1nc(-c3c[nH]c4ncccc34)cs1)cn2CCCN1CCCCC1         0.49
2  COc1cc2cc(Oc3ccc(NC(=O)Nc4cccc(C(F)(F)F)c4)cc3)c(C)nc2cc1OC         0.97
3        Nc1nc(Cl)c2ncn(Cc3ccc(CCl)cc3)c2n1         1.97

Switching to the query record.
Query CC(C)(C)c1nn(-c2ccccc2)c2c1C(=O)CSC(c1ccccc1Cl)N2 (centres undefined) yields log10 of TGI of 1.18

###

Reported TGI values for the following molecules.
# Test system: RPMI-8226 leukemia
# procedure_details: NCI tumour cell line growth inhibition, 48 h

In [3]: df
Out[3]:
                                   molecule  test_result
0  CC(C)(C)c1cc(-c2cc(C(C)(C)C)n(-c3ccccc3)n2)nn1-c1ccccc1     > 100 µM
1  CN(C)c1ccc(/C=c2/c3ccccc3n3nc4ccccc4c23)cc1      39.1 µM
2  COc1cccc(NC(=O)/C(CC(=O)CC(c2ccccc2)c2c(O)c3ccccc3oc2=O)=N\NC(C)(C)C)c1OC (stereo not drawn)     > 100 µM
3  CC(C)(C)N1C(C(=O)c2ccccc2)C1c1ccccc1 (stereo not drawn)     > 100 µM
4  CCCCCCCCCc1cc(-c2ccc(C=O)s2)sc1-c1ccc(C=O)s1      51.2 µM

Bench note, RPMI-8226 leukemia: Clc1ccc2c(c1)C1C(CO2)C(c2ccccc2)=NN1c1ccccc1 (stereo not drawn) , TGI reads 47.6 µM

TGI on RPMI-8226 leukemia for c1cc(Sc2nc(Sc3ccncc3)nc(Sc3ccncc3)n2)ccn1 is > 100 µM

Value (TGI, RPMI-8226 leukemia) for record C#CCC(Cc1cnc2nc(N)nc(N)c2n1)c1ccc(C(=O)N[C@@H](CCC(=O)O)C(=O)O)cc1 (stereo partly drawn) = > 100 µM

###

Catalogue of TGI readings, one per entry.
# Tested on: U251 CNS
# procedure_details: NCI tumour cell line growth inhibition, 48 h

Look over these answered cases.
>>> print(df.to_string())
                                   molecule  test_result
0  Cc1ccc(/C=C2/SC(Nc3nc(-c4csc(NC5=NC(=O)/C(=C\c6ccc(C)cc6)S5)n4)cs3)=NC2=O)cc1      > 50 µM
1  O=C(CC(C(=O)c1ccco1)c1ccsc1)c1ccco1 (centres undefined)     > 100 µM
2  COC(=O)c1ccccc1C1CN=NC12Cc1ccc(C)c(C)c1C2=O (centres undefined)     > 100 µM

As a next step, examine the molecule that follows.
Measured TGI, CCOP(=O)(CCCC(O)CNc1cc(Cl)nc(N)n1)OCC (centres undefined) : > 100 µM

###

# Test system: PC-3 prostate
# procedure_details: NCI tumour cell line growth inhibition, 48 h
measurement_name: TGI (µM)
Report the value in µM with no unit label.

Worked cases, answers included:
>>> print(df.to_string())
                                   compound    system_name  reading_unit  test_result
0        Nc1nc(Cl)c2ncn(Cc3ccc(CCl)cc3)c2n1  PC-3 prostate            µM           25
1  CC(C)(C)c1nn(-c2ccccc2)c2c1C(=O)CSC(c1ccccc1Cl)N2 (stereo unspecified)  PC-3 prostate            µM         16.5
2  O=C(Nc1cc(Cl)cc(Cl)c1)c1ccc(NC2=C(Cl)C(=O)N(Cc3ccc(Cl)cc3Cl)C2=O)cc1  PC-3 prostate            µM         25.8
3  CCC(CO)Nc1nc(NCc2ccccc2O)c2ncn(C(C)C)c2n1 (stereo unspecified)  PC-3 prostate            µM         30.8

The record that follows has no TGI shown yet.
Entry COc1cc(C)c2c(=O)c3ccccc3n(C)c2c1 — recorded TGI = 78.2

###

# Tested on: SK-MEL-28 melanoma
# procedure_details: NCI tumour cell line growth inhibition, 48 h
measurement_name: TGI

Solved entries (count: 2):
>>> print(df.to_string())
                        structure_as_smiles  test_result
0  CS/C1=C(\c2ccc(C)cc2)N(c2ccccc2)C(=O)C(=O)N(c2ccccc2)/C(c2ccc(C)cc2)=C(/SC)SS1     > 100 µM
1  Nc1nc(N)c2c(n1)NC(=O)c1c(c3ccccc3n1Cc1ccc(Cl)cc1)C2     > 100 µM

Measured TGI for this entry O=C1C(N2CCNCC2)=C(Cl)C(=O)c2ncccc21 on SK-MEL-28 melanoma: > 10 µM

###

# System: UACC-62 melanoma
# procedure_details: NCI tumour cell line growth inhibition, 48 h
Items are presented alongside their recorded TGI.
Express the result in µM but write the number alone.

Would you please look over these solved cases?
>>> print(df.to_string())
                        structure_as_smiles  measurement_name  test_result
0  Nc1c2c(=O)[nH]c(=O)c2c(N)c2c(=O)c3ccccc3c(=O)c12               TGI         3.25
1  Cc1c(-c2c(-c3ccc(F)o3)sc3ncnc(O[C@H](Cc4ccccc4OCc4ccnn4CC(F)(F)F)C(=O)O)c23)ccc(OCCN2CCN(C)CC2)c1Cl               TGI         3.13

Proceeding to the next compound to report its TGI.
Measured TGI of Cc1ccc(/C=C2/SC(Nc3nc(-c4csc(NC5=NC(=O)/C(=C\c6ccc(C)cc6)S5)n4)cs3)=NC2=O)cc1 : 13.6

###

# System: NCI-H460 lung
Use one of these outcomes when replying: active, inactive

Exercise: Called result for CC[C@H](Nc1nc(NCc2cnc(C)cc2C)c2ncn(C(C)C)c2n1)[C@@H](C)O
Solution: active

Exercise: Per the assay record, what outcome was assigned to CC1(C)N=C(N)N=C(N)N1c1ccc(OCCCCOc2ccc(S(=O)(=O)F)cc2)c(Cl)c1 ?
Solution: active

Exercise: Tell me the assay call for CC(C)(O)CS(=O)(=O)Nc1ccc2c(c1)CCN(C(=O)COc1cccnc1)C2 please.
Solution: inactive

Exercise: Name the outcome recorded for O=c1ccc2nc(-c3ccccc3)nn(-c3ccccn3)c-2c1 in the assay.
Solution: inactive

Exercise: Call for entry Cc1ccc(-n2c3c(c4c(CN(C)C)c(O)ccc42)CCc2ccccc2C3=O)cc1 :
Solution: inactive

###

The entries below come with measured TGI values attached.
# System: MOLT-4 leukemia
# procedure_details: NCI tumour cell line growth inhibition, 48 h

compound	system_name	measurement_name	test_result
O=C1SS(=O)c2ccccc21 (stereo unspecified)	MOLT-4 leukemia	TGI	> 100 µM

Entry c1ccc(Cc2nc(Cc3n[nH]c(Cc4ccccc4)n3)n[nH]2)cc1 , TGI reported as > 100 µM

Per the records, this compound ( CC1=C2C[C@H]3[C@@H](CC[C@@H]4CC(NS(C)(=O)=O)CC[C@@]43C)[C@@H]2CC[C@@]2(C1)O[C@@H]1C[C@H](C)CN[C@H]1[C@H]2C (stereo partly specified) ) has TGI equal to 23.2 µM

Please fill in: TGI reported for C#CCOc1c(C(=O)OCC)c(=O)n(C)c2ccccc12 = > 100 µM

Just so you know, measured TGI for CN(CCCCN1CCCC1)CCCN(C)C(=O)Cc1ccc(Cl)c(Cl)c1 came out at 26.5 µM

Documented TGI of N/C(=C\c1ccc(OCc2ccccc2)c(OCc2ccccc2)c1[N+](=O)[O-])C(=O)O : > 100 µM

###

Reported TGI by item:
# Test system: HT29 colon
# procedure_details: NCI tumour cell line growth inhibition, 48 h

Reported TGI ( CC1(c2cccc3ccccc23)OC(=O)c2ccccc21 (stereo not given) ) = 53.8 µM

The recorded TGI for CC(C)(O)CS(=O)(=O)Nc1ccc2c(c1)CCN(C(=O)COc1cccnc1)C2 is > 100 µM

For record CCC1(c2c(F)c(F)c(N)c(F)c2F)CCC(=O)NC1=O (stereo not given) the listed TGI is > 100 µM

Consider O=C1c2ccccc2NC(=O)C2C1C(c1ccccc1)CC2(O)c1ccccc1 (stereo not given) . Its measured TGI is > 100 µM

Consider COC(=O)c1sc2ncc3c(c2c1N)CCCCCC3 . Its measured TGI is > 100 µM

###

# System: SK-MEL-2 melanoma
# procedure_details: NCI tumour cell line growth inhibition, 48 h
measurement_name: TGI

Reference set, count: 2
>>> df
                                   compound  test_result
0  COC(=O)c1ccccc1C1CN=NC12Cc1ccc(C)c(C)c1C2=O (stereo not drawn)     > 100 µM
1  O=[N+]([O-])c1nccn1CC(O)CN1CC1 (stereo not drawn)     > 100 µM

Consider the additional compound presented here.
Sure, the documented TGI for O=C1c2ccccc2NC(=O)C2C1C(c1ccccc1)CC2(O)c1ccccc1 (stereo not drawn) is > 100 µM
